Recorded fold increase over parent (IgG KD, comparative binding affinity) for the following binders
subject of test: T1, cynomolgus MCSP D3 (cynomolgus)
T1 construct: domain: D3; also called Cyno MCSP; cynomolgus homologue
experiment: ratio of ProteOn IgG KD against parental M4-3/ML2 IgG
Kindly provide the numeric value in fold only, without the unit symbol.

binder	endpoint result
M4-3(A7)/ML2(C5) IgG (antibody, V domains shown, Human IgG1 format) VH: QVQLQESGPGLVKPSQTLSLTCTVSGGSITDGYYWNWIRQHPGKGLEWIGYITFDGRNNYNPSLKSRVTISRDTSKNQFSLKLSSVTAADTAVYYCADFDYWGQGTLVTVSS VL: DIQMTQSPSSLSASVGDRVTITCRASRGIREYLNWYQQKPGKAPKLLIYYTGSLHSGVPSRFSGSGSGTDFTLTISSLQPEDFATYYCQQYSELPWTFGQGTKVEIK	10

Item M4-3(B8)/ML2 IgG (antibody, V domains shown, Human IgG1 format) VH: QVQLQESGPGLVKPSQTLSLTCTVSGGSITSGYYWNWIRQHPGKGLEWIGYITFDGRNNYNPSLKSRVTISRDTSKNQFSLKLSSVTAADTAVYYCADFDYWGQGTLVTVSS VL: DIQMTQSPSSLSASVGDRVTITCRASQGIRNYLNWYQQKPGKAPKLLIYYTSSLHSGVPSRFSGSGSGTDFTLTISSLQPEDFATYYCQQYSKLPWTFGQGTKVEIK : provide fold increase over parent (IgG KD, comparative binding affinity)
2

Item M4-3/ML2 (E10/G3) IgG (antibody, V domains shown, Human IgG1 format; also called MCSP ML2(E10-G3)) VH: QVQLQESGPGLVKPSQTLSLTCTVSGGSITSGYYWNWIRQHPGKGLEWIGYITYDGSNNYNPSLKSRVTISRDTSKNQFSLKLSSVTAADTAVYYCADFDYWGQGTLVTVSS VL: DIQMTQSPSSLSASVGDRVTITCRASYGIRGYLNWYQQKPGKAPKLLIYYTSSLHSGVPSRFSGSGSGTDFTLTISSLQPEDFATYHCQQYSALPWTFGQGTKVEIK : provide fold increase over parent (IgG KD, comparative binding affinity)
2.2

The values you see were collected from patent US20160130347A1.
